Measured pIC50 accompanies every entry in the list below.
target: HLA-A*6802 (human); experiment: competition with 125I probe peptide for purified HLA
Where no end group is shown, it is not given here. [ ]: non-standard residue; d: D form. Abu = CC[C@H](N)C(=O)O
Formally, pIC50 is defined as -log10 of the concentration c, with c in mol/L.

Report measured pIC50; entry is AV[Abu]RWGLLV [Her2/neu.5V2B3V9 AVBRWGLLV] 5.33
